# system: T1, human MSLN-R3-3 polypeptide (human)
# T1 construct: also called human MSLN-R3-3 protein; hMSLN-R3-3
# experimental_protocol: ELISA, coated MSLN-R3-3;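 also: chimeric antibodies in serial dilution bound to plate-coated antigen for 2 h at 37 °C, with a negative control antibody alongside, and TMB colour development stopped with HCl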
property_name: OD450 at none (no antibody) (OD450)
Please respond with the number in OD450 and leave the unit unwritten.

INPUT: Quickly give me recorded OD450 at none (no antibody) for S009-F1.59.1 (antibody, human IgG1, kappa, V domains shown, Human-murine chimeric antibody, human IgG1/kappa constant regions) VH: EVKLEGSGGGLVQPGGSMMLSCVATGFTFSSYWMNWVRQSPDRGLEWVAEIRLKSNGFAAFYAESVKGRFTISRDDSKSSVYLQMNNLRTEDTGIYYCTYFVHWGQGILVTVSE VL: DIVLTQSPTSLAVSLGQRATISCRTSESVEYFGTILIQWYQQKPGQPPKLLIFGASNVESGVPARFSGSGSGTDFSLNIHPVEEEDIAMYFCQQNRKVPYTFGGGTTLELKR
OUTPUT: 0.07

INPUT: Quickly give me recorded OD450 at none (no antibody) for S009-F1.62.9 (antibody, human IgG1, kappa, V domains shown, Human-murine chimeric antibody, human IgG1/kappa constant regions) VH: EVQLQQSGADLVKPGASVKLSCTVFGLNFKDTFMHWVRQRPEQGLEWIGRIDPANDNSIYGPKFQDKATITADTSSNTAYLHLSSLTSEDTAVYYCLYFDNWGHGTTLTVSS VL: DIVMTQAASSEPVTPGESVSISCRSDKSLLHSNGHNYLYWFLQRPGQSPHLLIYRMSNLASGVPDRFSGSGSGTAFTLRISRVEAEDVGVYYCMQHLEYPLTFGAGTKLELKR
OUTPUT: 0.07

INPUT: Quickly give me recorded OD450 at none (no antibody) for S009-F1.2.12 (antibody, human IgG1, kappa, V domains shown) VH: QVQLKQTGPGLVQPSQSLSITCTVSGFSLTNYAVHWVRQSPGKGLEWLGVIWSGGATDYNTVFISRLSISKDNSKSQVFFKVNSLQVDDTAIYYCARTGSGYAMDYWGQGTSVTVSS VL: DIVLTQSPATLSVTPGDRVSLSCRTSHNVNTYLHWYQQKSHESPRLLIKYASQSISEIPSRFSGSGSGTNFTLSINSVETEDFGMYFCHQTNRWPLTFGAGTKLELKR
OUTPUT: 0.08

INPUT: Quickly give me recorded OD450 at none (no antibody) for S009-F1.35.24 (antibody, human IgG1, kappa, V domains shown, Human-murine chimeric antibody, human IgG1/kappa constant regions) VH: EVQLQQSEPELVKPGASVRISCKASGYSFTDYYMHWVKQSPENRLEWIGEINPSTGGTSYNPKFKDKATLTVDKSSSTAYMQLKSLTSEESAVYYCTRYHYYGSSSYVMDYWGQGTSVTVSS VL: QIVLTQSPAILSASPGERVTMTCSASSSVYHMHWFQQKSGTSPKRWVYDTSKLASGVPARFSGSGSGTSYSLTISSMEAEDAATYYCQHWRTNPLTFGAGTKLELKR
OUTPUT: 0.07
